# system-under-test: Glutamate receptor ionotropic, AMPA (Rattus norvegicus) (UniProt P19491+P19492+P19493+P19490)
# method: Displacement of [3H]AMPA from AMPA receptor of rat cortical membranes
# Type: cell membranes
# Design: concentration or dose not given beside the values
# protocol-conditions: Membrane, concentration not given here
metric: inhibition (%)

Below, each entry is followed by its recorded inhibition result.
Oc1nc2cc(Cl)cc(Cl)c2c(Br)c1O | 41
Oc1nc2cc(Cl)cc(Cl)c2c(Cl)c1O | 48
O=C(O)C(=O)c1c(O)c(O)nc2cc(Cl)cc(Cl)c12 | 63
O=C(Nc1ccccc1)C(=O)c1c(O)c(O)nc2cc(Cl)cc(Cl)c12 | 40
COC(=O)C(=O)c1c(O)c(O)nc2cc(Cl)cc(Cl)c12 | 28

I. O=C(O)C(=O)c1c(O)c(O)nc2ccccc12
II. CNC(=O)C(=O)c1c(O)c(O)nc2cc(Cl)cc(Cl)c12
III. CCOC(=O)C(=O)c1c(O)c(O)nc2cc(Cl)cc(Cl)c12
IV. COC(=O)C(=O)c1c(O)c(O)nc2ccccc12
Rank ascending by inhibition. Please list each label once, in the requested order.
IV, II, I, III
(IV: 2.6%, II: 15%, I: 31.9%, III: 56%)

###

# system-under-test: Glutamate NMDA receptor
# method: Displacement of [3H]-glycine from NMDA receptor of rat cortical membranes
metric: IC50 (nM)

CNC(=O)C(=O)c1c(O)c(O)nc2cc(Cl)cc(Cl)c12 | 3800
CCOC(=O)C(=O)c1c(O)c(O)nc2ccccc12 | 12000
O=C(O)C(=O)c1c(O)c(O)nc2ccccc12 | 1800

a. COC(=O)C(=O)c1c(O)c(O)nc2ccccc12
b. Oc1nc2cc(Cl)cc(Cl)c2c(Cl)c1O
// select label with min value of measured IC50 from [ a , b ] Use the label to indicate which entry you chose.
a
(a: 3000 nM, b: 4500 nM)

###

# system-under-test: Glutamate NMDA receptor (Rattus norvegicus) (UniProt P35439+Q00959+Q00960+Q00961+Q62645+Q8VHN2+Q9R1M7)
# method: Displacement of [3H]glycine from NMDA receptor of rat cortical membranes
# Type: cell membranes
# Parameters: concentration or dose not given beside the values
# protocol-conditions: Membrane, concentration not given here
metric: inhibition (%)

Below, each entry is followed by its recorded inhibition result.
Oc1nc2ccccc2c(Br)c1O | 59
O=c1[nH]c2ccccc2cc1O | 29
Oc1cc2c(Cl)c(Cl)ccc2nc1O | 0
CCOC(=O)c1c(O)c(O)nc2cc(Cl)c(Cl)cc12 | 43

a. CCOC(=O)/C=C/c1c(O)c(O)nc2ccccc12
b. CCOC(=O)c1c(O)c(O)nc2ccc(Cl)c(Cl)c12
c. O=C(O)CCc1c(O)c(O)nc2ccccc12
d. O=C(O)c1c(O)c(O)nc2ccccc12
e. COc1ccc(NC(=O)c2c(O)c(O)nc3ccccc23)cc1OC
Returns the items ordered by inhibition, from maximum to minimum. Please list each label once, in the requested order.
d, b, c, a, e
(d: 60%, b: 38%, c: 25%, a: 11%, e: 0%)

###

# system-under-test: Glutamate NMDA receptor
# method: Displacement of [3H]-glycine from NMDA receptor of rat cortical membranes
metric: IC50 (nM)

Below, each entry is followed by its recorded IC50 result.
COC(=O)C(=O)c1c(O)c(O)nc2cc(Cl)cc(Cl)c12 | 150
CCOC(=O)c1c(O)c(O)nc2cc(Cl)cc(Cl)c12 | 62
O=C(O)C(=O)c1c(O)c(O)nc2cc(Cl)cc(Cl)c12 | 520
Oc1nc2ccccc2c(Cl)c1O | 1400
O=C(Nc1ccccc1)C(=O)c1c(O)c(O)nc2cc(Cl)cc(Cl)c12 | 760

P. Oc1nc2cc(Cl)cc(Cl)c2c(Br)c1O
Q. CCOC(=O)C(=O)c1c(O)c(O)nc2cc(Cl)cc(Cl)c12
Identify the entry with the larger IC50. Options: P and Q Use the label to indicate which entry you chose.
P

###

# system-under-test: Glutamate NMDA receptor (Rattus norvegicus) (UniProt P35439+Q00959+Q00960+Q00961+Q62645+Q8VHN2+Q9R1M7)
# method: Displacement of [3H]glycine from NMDA receptor of rat cortical membranes
# Type: cell membranes
# Parameters: concentration or dose not given beside the values
# protocol-conditions: Membrane, concentration not given here
metric: inhibition (%)

Below, each entry is followed by its recorded inhibition result.
O=C(NCc1ccccc1)c1c(O)c(O)nc2ccccc12 | 40
CCOC(=O)c1c(O)c(O)nc2ccccc12 | 50
Oc1nc2ccc(Cl)c(Cl)c2c(Cl)c1O | 20
Oc1cc2c(Cl)cc(Cl)cc2nc1O | 29

a. Oc1nc2ccc(Cl)c(Cl)c2c(Br)c1O
b. O=C(O)/C=C/c1c(O)c(O)nc2ccccc12
Identify the entry with the larger inhibition. Options: a and b Use the label to indicate which entry you chose.
b
(b: 43%, a: 23%)

meta.source: ChEMBL document CHEMBL1128982
